system-tested: T1, AFP158/HLA-A*02:01 complex (human)
T1 construct: biotinylated on the BSP by BirA for ELISA and panning; also called biotinylated AFP158/HLA-A*02:01 complex; Bio-AFP158
procedure-details: SPR, crude scFv captured;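 also: Peptide–MHC complex flowed at several concentrations over sensorchip-captured scFv, Kd derived from on- and off-rates obtained from the association and dissociation curves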
# pKd values compiled below
Keep it numeric: pKd is minus log10 of the concentration in mol/L.

AS170036 VL1VH1 HP58Y (scFv) scFv: QSALTQPRSVSGSPGQSVTISCAGTSSDVGSENYVSWYQQHPGKAPKLMIYQVNKRASGVPDRFSGSKSGNTASLTISGLQAEDEADYYCASYRSSDHNIVFGGGTKLTVLGGGGSGGGGSGGGGSEVQLVESGGGLVQPGGSLRLSCAASGFTFSSYAMSWVRQAPGKGLEWVSTINSGTGSYYYADSVKGRFTISRDNSKNTLYLQMNSLRAEDTAVYYCAKNFFDGSWFLGPPAMDYWGQGTLVTVSSHHHHHH ... 5.46
AS170036 VL1VH1 HS57W (scFv) scFv: QSALTQPRSVSGSPGQSVTISCAGTSSDVGSENYVSWYQQHPGKAPKLMIYQVNKRASGVPDRFSGSKSGNTASLTISGLQAEDEADYYCASYRSSDHNIVFGGGTKLTVLGGGGSGGGGSGGGGSEVQLVESGGGLVQPGGSLRLSCAASGFTFSSYAMSWVRQAPGKGLEWVSTINSGTGWPYYADSVKGRFTISRDNSKNTLYLQMNSLRAEDTAVYYCAKNFFDGSWFLGPPAMDYWGQGTLVTVSSHHHHHH ... 6.42

Let's switch to this binder now.
Find the recorded pKd belonging to AS170036 VL1VH1 HD102G (scFv) scFv: QSALTQPRSVSGSPGQSVTISCAGTSSDVGSENYVSWYQQHPGKAPKLMIYQVNKRASGVPDRFSGSKSGNTASLTISGLQAEDEADYYCASYRSSDHNIVFGGGTKLTVLGGGGSGGGGSGGGGSEVQLVESGGGLVQPGGSLRLSCAASGFTFSSYAMSWVRQAPGKGLEWVSTINSGTGSPYYADSVKGRFTISRDNSKNTLYLQMNSLRAEDTAVYYCAKNFFGGSWFLGPPAMDYWGQGTLVTVSSHHHHHH and report it.
5.60
